Each recorded value in this set is attributed to the supplement of paper PMC9170038.

Items are presented alongside their recorded apparent KD of K4 kissing-loop reporter.
Test system: K4 kissing-loop RNA reporter;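 note: bound reporter read as fluorescence of individual clusters on recovered sequencing chips by microscopy, with normalized cluster intensities fitted with a binding model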
Experiment summary: apparent KD of K4 kissing-loop reporter; higher = weaker reporter binding
Condition summary: Eterna round: R107; input ligand: tryptophan 2.4 mM
Enter your answer as a number in nM; do not include the unit.

Value of measured apparent KD of K4 kissing-loop reporter for the entry AAAAUAACCCAGUGAUGUUGGUCUCCAGAUACCAGCGACGAAAGUCGCCCUUGGCAGCUGUGGACGUACAAAAUAAGUACGUCCU : 558

Consider GCAAUCCCGGCGGCCGCCACUUUCAUACCAGUGAUGUUGAGUAGGAAAUGGAAUAUGCGCUGAAUAAGGACCGGGCCUAAGGAGA [theeternabot_exclusion_KL_Trp_B_47] . Its measured apparent KD of K4 kissing-loop reporter is 210

---
# sequence GGAGGGAUCUCGGCCGCCACUCGUAAGAAAUGGGCCUCAGGGAUAUAGUGAUGUUAUGUAAAGAAGAGGACCGGGAGAAAGAAGG [ExTryptoB.Dd] ; its apparent KD of K4 kissing-loop reporter = 209

Given item UAUAUAGUGACGGCCGCCACUAUAUUAAUGUUUUUGUUAGAGUGAUGUUUUGAUUAAUAUUUUUAUAGGACCGGGUUAUAUGUUA [xzzxmullin] , the value recorded as its apparent KD of K4 kissing-loop reporter is 558

Form: sequence = UCUGUACCGGGAAGGAGCGUGAAUGAGAAUGGAUAUAGUGAUGUUAUGUAUACGAACGAAUCGCAGGUAGGUCGCCCGGAUCCCU [SSArgB.aA] ; apparent KD of K4 kissing-loop reporter = 467

Recorded result, UCCUGCAAUCGCCCACGAAAGUGGAUCGAUACCAGAGUCGAAAGACUCCCUUGGCAGCGAGUGAUGUUCGAAGCAGGUAAAUAAA , apparent KD of K4 kissing-loop reporter: 637
